# assayProtocol: Thermodynamic solubility (Solubility Test Procedure II)
# details: sodium acetate buffer, pH 4, aqueous buffer, thermodynamic from solid
assayReadout: solubility thermodynamic at 24 h (µg/mL)

{"compound": "C[C@]12CC[C@@H]3c4ccc(O)cc4C[C@@H](CCCCCCCCC[S+]([O-])CCCC(F)(F)C(F)(F)F)[C@H]3[C@@H]1CC[C@@H]2O (stereo partly shown)", "reading": 2.9}

----------
# assayProtocol: Thermodynamic solubility (Solubility Test Procedure II)
# details: phosphate buffered saline (PBS), pH 7.4, aqueous buffer, thermodynamic from solid
assayReadout: solubility thermodynamic at 24 h

{"compound": "C[C@]12CC[C@@H]3c4ccc(O)cc4C[C@@H](CCCCCCCCC[S+]([O-])CCCC(F)(F)C(F)(F)F)[C@H]3[C@@H]1CC[C@@H]2O (stereo partly shown) [Fulvestrant]", "assayReadout": "solubility thermodynamic at 24 h", "reading": "1.2 µg/mL"}

----------
# assayProtocol: physchem
# details: 25 °C, pH 7.4, aqueous buffer, kinetic from dmso stock
assayReadout: solubility at 4 h (µM)

{"compound": "C[C@]12CC[C@@H]3c4ccc(OC(=O)CN5CCOCC5)cc4C[C@@H](CCCCCCCCC[S+]([O-])CCCC(F)(F)C(F)(F)F)[C@H]3[C@@H]1CC[C@@H]2O (stereo partly shown) [Example 10]", "assayReadout": "solubility at 4 h", "measureUnit": "µM", "reading": 0.2}
{"compound": "C[C@]12CC[C@@H]3c4ccc(OC(=O)CCC(=O)O)cc4C[C@@H](CCCCCCCCC[S+]([O-])CCCC(F)(F)C(F)(F)F)[C@H]3[C@@H]1CC[C@@H]2O (stereo partly shown) [Example 5]", "assayReadout": "solubility at 4 h", "measureUnit": "µM", "reading": 1.4}
{"compound": "CN(C)CC(=O)Oc1ccc2c(c1)C[C@@H](CCCCCCCCC[S+]([O-])CCCC(F)(F)C(F)(F)F)[C@@H]1[C@@H]2CC[C@]2(C)[C@@H](O)CC[C@@H]12 (stereo partly shown) [Example 1]", "assayReadout": "solubility at 4 h", "measureUnit": "µM", "reading": 0.04}
{"compound": "C[C@]12CC[C@@H]3c4ccc(OC(=O)CN5CCCC5)cc4C[C@@H](CCCCCCCCC[S+]([O-])CCCC(F)(F)C(F)(F)F)[C@H]3[C@@H]1CC[C@@H]2O (stereo partly shown) [Example 8]", "assayReadout": "solubility at 4 h", "measureUnit": "µM", "reading": 17.1}

----------
# assayProtocol: physchem
# details: pH 4, aqueous buffer, thermodynamic from solid

{"compound": "CN1CCC(CC(=O)Oc2ccc3c(c2)C[C@@H](CCCCCCCCC[S+]([O-])CCCC(F)(F)C(F)(F)F)[C@@H]2[C@@H]3CC[C@]3(C)[C@@H](O)CC[C@@H]23)CC1 (some centres unmarked)", "measureUnit": "µg/mL", "inequalityOperator": "=", "solubility thermodynamic at 24 h": 630}
{"compound": "C[C@]12CCC3c4ccc(OCOP(=O)(O)O)cc4C[C@@H](CCCCCCCCC[S+]([O-])CCCC(F)(F)C(F)(F)F)[C@H]3[C@@H]1CC[C@@H]2O (some centres unmarked)", "measureUnit": "µg/mL", "inequalityOperator": ">", "solubility thermodynamic at 24 h": 1000}

----------
# assayProtocol: physchem
# details: pH 7.4, aqueous buffer, thermodynamic from solid
# Lookup of reported solubility thermodynamic keyed by entry

{"compound": "CC(C)[C@H](NC(=O)Oc1ccc2c(c1)C[C@@H](CCCCCCCCC[S+]([O-])CCCC(F)(F)C(F)(F)F)[C@@H]1C2CC[C@]2(C)[C@@H](O)CC[C@@H]12)C(=O)O (some centres unmarked)", "solubility thermodynamic, µg/mL": 1250}
{"compound": "C[C@]12CC[C@@H]3c4ccc(OP(=O)(O)O)cc4C[C@@H](CCCCCCCCC[S+]([O-])CCCC(F)(F)C(F)(F)F)[C@H]3[C@@H]1CC[C@@H]2O (some centres unmarked)", "solubility thermodynamic, µg/mL": 1220}
